Reference source for all entries: ChEMBL document CHEMBL1201862

I'd appreciate it if you could supply AC50 values for the items below.
# protocolText: growth inhibition of yeast DHODH-expressing 3D7 parasites – SYBR Green, dry powder samples, dose response (AID 1159570);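 note: parasite growth measured after 72 hours of compound exposure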
# Format: functional, cell-based
Active and inactive are the calls of the source. The rule behind the calls is not given here.

*Q* Fill in the blank: the reported AC50 of `C[C@@H]1CN([C@@H](C)CO)C(=O)c2cccc(NC(=O)c3nc4ccccc4s3)c2O[C@H]1CN(C)C(=O)NC1CCCCC1` is ____.
*A* 846 nM (active)

*Q* Fill in the blank: the reported AC50 of `COc1ccccc1S(=O)(=O)N(C)C[C@@H]1Oc2cc(C#CCC3CCCC3)ccc2S(=O)(=O)N([C@H](C)CO)C[C@H]1C` is ____.
*A* 227 nM (active)

*Q* Fill in the blank: the reported AC50 of `C[C@H](CO)N1C[C@H](C)[C@H](CN(C)CC2CC2)Oc2ccc(NC(=O)Nc3ccccc3)cc2CC1=O` is ____.
*A* 3810 nM (active)
